Test: in vivo
Conditions: mouse, in vivo, po, (b) = 5Bromouracil, (b)/(a) mol ratio 0.5

compound: O=c1[nH]cc(F)c(=O)n1C1CCCO1 (stereo not shown) [Compound 6, 3-(2-Tetrahydrofuryl)-5-fluorouracil]
LD50 at 504 h (mg/kg): 745

====

Assay: in vivo
Conditions: mouse, in vivo, po, (b) = 5Bromouracil, (b)/(a) mol ratio 2

compound: O=c1[nH]cc(F)c(=O)n1C1CCCO1 (stereo not shown) [Compound 6, 3-(2-Tetrahydrofuryl)-5-fluorouracil]
LD50 at 504 h: 575 mg/kg

====

Assay: in vivo
Conditions: mouse, in vivo, po, (b) = 2'-Deoxycytidine, (b)/(a) mol ratio 1

molecule: O=c1[nH]cc(F)c(=O)n1C1CCCO1 (stereo not shown) [Compound 6, 3-(2-Tetrahydrofuryl)-5-fluorouracil]
units-symbol: mg/kg
LD50 at 504 h: 928

====

Assay: in vivo
Conditions: mouse, in vivo, po, (b) = Uridine, (b)/(a) mol ratio 20

molecule: O=c1[nH]cc(F)c(=O)n1C1CCCO1 (stereo not shown) [Compound 6, 3-(2-Tetrahydrofuryl)-5-fluorouracil]
LD50 at 504 h: 597 mg/kg

====

Assay: in vivo
Settings: mouse, in vivo, po, (b) = 1Acetyluracil, (b)/(a) mol ratio 2

compound: O=c1[nH]cc(F)c(=O)n1C1CCCO1 (stereo not shown) [Compound 6, 3-(2-Tetrahydrofuryl)-5-fluorouracil]
LD50 at 504 h: 468 mg/kg

====

Assay: in vivo
Details: mouse, in vivo, po, (b) = Thymine, (b)/(a) mol ratio 10

compound: O=c1[nH]cc(F)c(=O)n1C1CCCO1 (stereo not shown) [Compound 6, 3-(2-Tetrahydrofuryl)-5-fluorouracil]
LD50 at 504 h: 324 mg/kg

====

Experiment: in vivo
Conditions: mouse, in vivo, po, (b) = 5Bromo-2'-deoxyuridine, (b)/(a) mol ratio 2

compound: O=c1[nH]cc(F)c(=O)n1C1CCCO1 (stereo not shown) [Compound 6, 3-(2-Tetrahydrofuryl)-5-fluorouracil]
units-symbol: mg/kg
LD50 at 504 h: 478

====

Assay: in vivo
Settings: mouse, in vivo, po, (b) = 5Bromo-2'-deoxyuridine, (b)/(a) mol ratio 10

compound: O=c1[nH]cc(F)c(=O)n1C1CCCO1 (stereo not shown) [Compound 6, 3-(2-Tetrahydrofuryl)-5-fluorouracil]
LD50 at 504 h: 308 mg/kg

====

Experiment: in vivo
Conditions: mouse, in vivo, po, (b) = Uridine, (b)/(a) mol ratio 2

molecule: O=c1[nH]cc(F)c(=O)n1C1CCCO1 (stereo not shown) [Compound 6, 3-(2-Tetrahydrofuryl)-5-fluorouracil]
LD50 at 504 h: 815 mg/kg

====

Experiment: in vivo
Conditions: mouse, in vivo, po, (b) = 1Cyclohexylcarbamoyluracil, (b)/(a) mol ratio 0.5

compound: O=c1[nH]cc(F)c(=O)n1C1CCCO1 (stereo not shown) [Compound 6, 3-(2-Tetrahydrofuryl)-5-fluorouracil]
LD50 at 504 h, mg/kg: 833

====

Assay: in vivo
Details: mouse, in vivo, po, (b) = Uridine, (b)/(a) mol ratio 1
readout: LD50 at 504 h (mg/kg)

molecule: O=c1[nH]cc(F)c(=O)n1C1CCCO1 (stereo not shown) [Compound 6, 3-(2-Tetrahydrofuryl)-5-fluorouracil]
readout: LD50 at 504 h
reported-value: 945

====

Assay: in vivo
Settings: mouse, in vivo, po, (b) = 3Benzoyluracil, (b)/(a) mol ratio 10

compound: O=c1[nH]cc(F)c(=O)n1C1CCCO1 (stereo not shown) [Compound 6, 3-(2-Tetrahydrofuryl)-5-fluorouracil]
LD50 at 504 h (mg/kg): 448

====

Assay: in vivo
Details: mouse, in vivo, po, (b) = 1n-Hexylcarbamoyluracil, (b)/(a) mol ratio 1
readout: LD50 at 504 h (mg/kg)

molecule: O=c1[nH]cc(F)c(=O)n1C1CCCO1 (stereo not shown) [Compound 6, 3-(2-Tetrahydrofuryl)-5-fluorouracil]
readout: LD50 at 504 h
reported-value: 928

====

Assay: in vivo
Details: mouse, in vivo, po, (b) = 1n-Hexylcarbamoyluracil, (b)/(a) mol ratio 10

compound: O=c1[nH]cc(F)c(=O)n1C1CCCO1 (stereo not shown) [Compound 6, 3-(2-Tetrahydrofuryl)-5-fluorouracil]
units-symbol: mg/kg
LD50 at 504 h: 469

====

Test: in vivo
Details: mouse, in vivo, po, (b) = 5Bromouracil, (b)/(a) mol ratio 10
Method: The anti-cancer compositions of this invention are tested in mice by the following methods to determine acute toxicity, anti-cancer effect and therapeutic index Male mice of ICR strain weighing 22±1 g are used, 5 mice in each group. […] The LD50 is determined according to the up-and-down method 3 weeks after the administration.
readout: LD50 at 504 h (mg/kg)

compound: O=c1[nH]cc(F)c(=O)n1C1CCCO1 (stereo not shown) [Compound 6, 3-(2-Tetrahydrofuryl)-5-fluorouracil]
units-symbol: mg/kg
reported-value: 412

====

Experiment: in vivo
Conditions: mouse, in vivo, po, (b) = 1Acetyluracil, (b)/(a) mol ratio 1

compound: O=c1[nH]cc(F)c(=O)n1C1CCCO1 (stereo not shown) [Compound 6, 3-(2-Tetrahydrofuryl)-5-fluorouracil]
LD50 at 504 h (mg/kg): 702

====

Assay: in vivo
Settings: mouse, in vivo, po, (b) = 1Acetyluracil, (b)/(a) mol ratio 5

molecule: O=c1[nH]cc(F)c(=O)n1C1CCCO1 (stereo not shown) [Compound 6, 3-(2-Tetrahydrofuryl)-5-fluorouracil]
LD50 at 504 h (mg/kg): 246

====

Experiment: in vivo
Settings: mouse, in vivo, po, (b) = Thymine, (b)/(a) mol ratio 2

compound: O=c1[nH]cc(F)c(=O)n1C1CCCO1 (stereo not shown) [Compound 6, 3-(2-Tetrahydrofuryl)-5-fluorouracil]
LD50 at 504 h: 537 mg/kg

====

Test: in vivo
Conditions: mouse, in vivo, po, (b) = Orotic acid, (b)/(a) mol ratio 20
readout: LD50 at 504 h (mg/kg)

compound: O=c1[nH]cc(F)c(=O)n1C1CCCO1 (stereo not shown) [Compound 6, 3-(2-Tetrahydrofuryl)-5-fluorouracil]
reported-value: 806

====

Test: in vivo
Conditions: mouse, in vivo, po, (b) = 2'-Deoxycytidine, (b)/(a) mol ratio 2

molecule: O=c1[nH]cc(F)c(=O)n1C1CCCO1 (stereo not shown) [Compound 6, 3-(2-Tetrahydrofuryl)-5-fluorouracil]
units-symbol: mg/kg
LD50 at 504 h: 843

====

Experiment: in vivo
Details: mouse, in vivo, po, (b) = Thymine, (b)/(a) mol ratio 0.5

compound: O=c1[nH]cc(F)c(=O)n1C1CCCO1 (stereo not shown) [Compound 6, 3-(2-Tetrahydrofuryl)-5-fluorouracil]
units-symbol: mg/kg
LD50 at 504 h: 830

====

Experiment: in vivo
Settings: mouse, in vivo, po, (b) = Cytidine, (b)/(a) mol ratio 10
Experimental: The anti-cancer compositions of this invention are tested in mice by the following methods to determine acute toxicity, anti-cancer effect and therapeutic index Male mice of ICR strain weighing 22±1 g are used, 5 mice in each group. […] The LD50 is determined according to the up-and-down method 3 weeks after the administration.
readout: LD50 at 504 h (mg/kg)

compound: O=c1[nH]cc(F)c(=O)n1C1CCCO1 (stereo not shown) [Compound 6, 3-(2-Tetrahydrofuryl)-5-fluorouracil]
readout: LD50 at 504 h
reported-value: 773

====

Test: in vivo
Conditions: mouse, in vivo, po, (b) = Cytosine, (b)/(a) mol ratio 10

compound: O=c1[nH]cc(F)c(=O)n1C1CCCO1 (stereo not shown) [Compound 6, 3-(2-Tetrahydrofuryl)-5-fluorouracil]
units-symbol: mg/kg
LD50 at 504 h: 639

====

Test: in vivo
Conditions: mouse, in vivo, po, (b) = 5Bromo-2'-deoxyuridine, (b)/(a) mol ratio 0.5
Description: The anti-cancer compositions of this invention are tested in mice by the following methods to determine acute toxicity, anti-cancer effect and therapeutic index Male mice of ICR strain weighing 22±1 g are used, 5 mice in each group. […] The LD50 is determined according to the up-and-down method 3 weeks after the administration.

molecule: O=c1[nH]cc(F)c(=O)n1C1CCCO1 (stereo not shown) [Compound 6, 3-(2-Tetrahydrofuryl)-5-fluorouracil]
LD50 at 504 h / mg/kg: 640

====

Test: in vivo
Settings: mouse, in vivo, po, (b) = 1n-Hexylcarbamoyluracil, (b)/(a) mol ratio 2
readout: LD50 at 504 h

molecule: O=c1[nH]cc(F)c(=O)n1C1CCCO1 (stereo not shown) [Compound 6, 3-(2-Tetrahydrofuryl)-5-fluorouracil]
reported-value: 844 mg/kg

====

Test: in vivo
Conditions: mouse, in vivo, po, (b) = Orotic acid, (b)/(a) mol ratio 2

compound: O=c1[nH]cc(F)c(=O)n1C1CCCO1 (stereo not shown) [Compound 6, 3-(2-Tetrahydrofuryl)-5-fluorouracil]
LD50 at 504 h / mg/kg: 969

====

Assay: in vivo
Settings: mouse, in vivo, po, (b) = Cytidine, (b)/(a) mol ratio 2
Protocol: The anti-cancer compositions of this invention are tested in mice by the following methods to determine acute toxicity, anti-cancer effect and therapeutic index Male mice of ICR strain weighing 22±1 g are used, 5 mice in each group. […] The LD50 is determined according to the up-and-down method 3 weeks after the administration.
readout: LD50 at 504 h (mg/kg)

compound: O=c1[nH]cc(F)c(=O)n1C1CCCO1 (stereo not shown) [Compound 6, 3-(2-Tetrahydrofuryl)-5-fluorouracil]
units-symbol: mg/kg
reported-value: 928
